Just for reference, patent US11026942B2 is where these values come from.

# Test system: Aβ43
# assay_info: Aβ43 in FAD1 iPS cell-derived nerve cells (secondary screening)
# Type: cell-based, human
# Design: scale not given here
# Method: To further study reproducibility of the candidate drugs obtained by the primary screening, secondary screening was conducted. In addition to Aβ40, Aβ42, Aβ42/40 ratio, Aβ38, Aβ43, sAPPα, sAPPβ were also studied and each numerical value was obtained.
Labelling: Aβ43 reported below 0.9 becomes Condition met; at or above becomes Condition not met.

compound: c1ccc2[nH]c(-c3cscn3)nc2c1 [compound 20, THIABENDAZOLE]
tested_target: Aβ43
discrete_label: Condition met
//
compound: NCCCCCC(=O)O [compound 49, AMINOCAPROIC ACID]
tested_target: Aβ43
discrete_label: Condition not met
//
compound: CC1(C)C(C=C(Cl)Cl)C1C(=O)OC(C#N)c1cccc(Oc2ccccc2)c1 (stereo not drawn) [compound 38, CYPERMETHRIN]
tested_target: Aβ43
discrete_label: Condition not met
//
compound: COc1ccc(CCN(C)CCCC(C#N)(c2ccc(OC)c(OC)c2)C(C)C)cc1OC (stereo not drawn) [compound 75]
tested_target: Aβ43
discrete_label: Condition met
//
compound: COc1cc2nc(N(C)CCCNC(=O)C3CCCO3)nc(N)c2cc1OC (stereo not drawn) [compound 81, ALFLUZOSIN]
tested_target: Aβ43
discrete_label: Condition not met
//
compound: CC(N=C(NC#N)Nc1ccncc1)C(C)(C)C (stereo not drawn) [compound 74]
tested_target: Aβ43
discrete_label: Condition met
